tested on: Candida albicans; settings: Candida albicans, average of triplicates
Decision: Minimum inhibitory concentration, Average compared against 8 µM; not below it gives T, below it gives F.

# count of solved cases: 3
IKLRNVLKYLFRIDVIKEDIL [Tc03] | T
FLSLIPHAINAVSTLVHHF [PS-2, reference compound] | T
GSLHGFMYKYLKNMVLTLF [At01] | T

Okay, now this sequence:
*Q* Textbook exercise: given the entry GKILKYLLYLLRKYANLIIR [Tc02] , state whether its Minimum inhibitory concentration, Average is greater than or equal to 8 µM.
*A* F

----------
system: Escherichia coli; details: Escherichia coli, CLSI M7-A10, triplicate 1
valueType: Minimum inhibitory concentration (µM)
# value in µM; strip the unit string

Study these solved cases before continuing.
GAKLAKKQVRALGKFFSF [At03] | 16
GFKDLLKGAAKALVKTVLF [Asc-8, Ascaphin 8, reference compound] | 2
GSLHGFMYKYLKTLVLRLY [Zm01] | 8

Sample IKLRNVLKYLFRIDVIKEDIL [Tc03] ; Minimum inhibitory concentration observed: 64

Sample GIGDILKNLAKAAGKAALHAVGESL [HSP-4, Hylaseptin-4, reference compound] ; Minimum inhibitory concentration observed: 8

Sample GLLFKELQKLIRYQIFIGK [Tc10] ; Minimum inhibitory concentration observed: 16

----------
system: Cryptococcus neoformans; conditions: Cryptococcus neoformans, CLSI M27-A3, triplicate 1
Decision: Minimum inhibitory concentration compared against 4 µM; not below it gives YES, below it gives NO.

# count of solved cases: 5
GLLFKELQKLIRYQIFIGK [Tc10] | YES
FFGHIWHGARTLFRDVFA [Cs02] | YES
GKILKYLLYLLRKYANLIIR [Tc02] | NO
GSLHGFMYKYLKNMVLTLF [At01] | YES
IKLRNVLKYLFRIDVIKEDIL [Tc03] | YES

*Q* Textbook exercise: given the entry GSLHGFMYKYLKNMVLNLF [Tc06] , state whether its Minimum inhibitory concentration is greater than or equal to 4 µM.
*A* YES

*Q* Textbook exercise: given the entry IVNHLVKLFDKGLNSIVNLR [Tc05] , state whether its Minimum inhibitory concentration is greater than or equal to 4 µM.
*A* YES

*Q* Textbook exercise: given the entry ANRLLEAYKMLLKFLGNLR [Gr02] , state whether its Minimum inhibitory concentration is greater than or equal to 4 µM.
*A* NO

*Q* Textbook exercise: given the entry LHRLVKLVAALLRGYASKVDTH [Tc08] , state whether its Minimum inhibitory concentration is greater than or equal to 4 µM.
*A* YES

*Q* Textbook exercise: given the entry GAKLAKKQVRALGKFFSF [At03] , state whether its Minimum inhibitory concentration is greater than or equal to 4 µM.
*A* YES

*Q* Textbook exercise: given the entry GSLHGFMYRYLKNMVLNLF [Cs01] , state whether its Minimum inhibitory concentration is greater than or equal to 4 µM.
*A* YES

*Q* Textbook exercise: given the entry GLYNFIKVLGRTVFGLYKQF [At04] , state whether its Minimum inhibitory concentration is greater than or equal to 4 µM.
*A* YES

*Q* Textbook exercise: given the entry GFKLGRKLVKVFKWII [Gr01] , state whether its Minimum inhibitory concentration is greater than or equal to 4 µM.
*A* NO

*Q* Textbook exercise: given the entry FFYNVIKIYGNMAGRISK [Cs03] , state whether its Minimum inhibitory concentration is greater than or equal to 4 µM.
*A* YES
